Target: Serine/threonine-protein kinase BRSK2 (Homo sapiens);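 further: values are mean inhibition of BRSK2 from the GSK PKIS screening dataset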
Conditions: at 0.1 µM
Tick t if inhibition is 0.8% or greater. Tick f if inhibition is less than 0.8%.

Example cases with answers are listed next.
- molecule: "CN1CCC(n2cnc(-c3ccc(F)cc3)c2-c2ccnc(Nc3ccccc3)n2)CC1"
  label.class: "f"
- molecule: "COC(=O)Nc1nc2ccc(S(=O)(=O)c3ccc(NC(=O)Nc4cc(C(F)(F)F)ccc4F)cc3)cc2[nH]1"
  label.class: "t"

hey, is inhibition for this one >= 0.8%? CC1=C(C(=O)Nc2cc(Cl)c3[nH]ncc3c2)C(c2ccc(C(F)(F)F)cc2)CC(=O)N1 (stereo not given)
t

hey, is inhibition for this one >= 0.8%? "CC(=O)Nc1cccc(C#Cc2cncnc2Nc2ccc(OCc3cccc(F)c3)c(Cl)c2)c1"
t

* * *

Molecular target: Vascular endothelial growth factor receptor 2 (Homo sapiens) (UniProt P35968)
Sequence (P35968 whole entry): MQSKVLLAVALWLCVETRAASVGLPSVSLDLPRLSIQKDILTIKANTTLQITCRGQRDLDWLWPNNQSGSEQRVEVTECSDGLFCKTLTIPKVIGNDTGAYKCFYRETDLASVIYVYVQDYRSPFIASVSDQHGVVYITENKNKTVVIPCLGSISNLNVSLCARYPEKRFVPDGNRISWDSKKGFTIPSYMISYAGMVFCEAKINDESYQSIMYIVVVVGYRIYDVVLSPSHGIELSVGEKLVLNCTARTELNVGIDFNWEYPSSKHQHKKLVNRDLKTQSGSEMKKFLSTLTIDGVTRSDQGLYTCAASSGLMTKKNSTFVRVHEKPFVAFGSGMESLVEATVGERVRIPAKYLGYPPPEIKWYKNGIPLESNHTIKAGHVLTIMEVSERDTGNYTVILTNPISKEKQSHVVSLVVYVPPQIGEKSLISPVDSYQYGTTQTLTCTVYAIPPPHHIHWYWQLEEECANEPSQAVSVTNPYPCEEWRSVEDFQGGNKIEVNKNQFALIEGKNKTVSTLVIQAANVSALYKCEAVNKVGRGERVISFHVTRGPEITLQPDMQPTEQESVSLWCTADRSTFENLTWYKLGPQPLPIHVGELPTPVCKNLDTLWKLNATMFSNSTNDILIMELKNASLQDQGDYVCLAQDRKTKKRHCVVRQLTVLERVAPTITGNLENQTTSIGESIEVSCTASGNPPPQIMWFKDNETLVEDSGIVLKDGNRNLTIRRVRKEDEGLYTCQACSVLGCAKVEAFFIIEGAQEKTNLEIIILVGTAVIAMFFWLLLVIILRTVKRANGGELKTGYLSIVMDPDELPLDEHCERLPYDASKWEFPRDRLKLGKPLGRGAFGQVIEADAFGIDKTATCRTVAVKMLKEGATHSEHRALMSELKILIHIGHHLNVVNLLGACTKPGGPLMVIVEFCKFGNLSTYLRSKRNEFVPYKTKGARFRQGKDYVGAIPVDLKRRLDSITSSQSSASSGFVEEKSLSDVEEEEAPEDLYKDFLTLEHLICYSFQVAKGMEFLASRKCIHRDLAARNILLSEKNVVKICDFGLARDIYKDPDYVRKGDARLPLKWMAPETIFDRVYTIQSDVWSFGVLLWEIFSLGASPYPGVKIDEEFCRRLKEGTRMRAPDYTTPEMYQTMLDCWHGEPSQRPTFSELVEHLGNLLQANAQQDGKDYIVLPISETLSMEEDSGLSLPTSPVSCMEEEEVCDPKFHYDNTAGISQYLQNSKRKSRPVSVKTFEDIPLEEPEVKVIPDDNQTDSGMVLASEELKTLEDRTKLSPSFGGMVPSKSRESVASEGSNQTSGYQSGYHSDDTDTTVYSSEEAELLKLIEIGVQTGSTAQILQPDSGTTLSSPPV
Conditions: at 0.1 µM
Description: GSK_PKIS: KDR mean inhibition at 0.1 uM [Nanosyn]
Quick reference for inhibition among some molecules
Write it as a number; the unit % goes unstated.

- molecule: "CCn1c(-c2nonc2N)nc2c(C#CC(C)(C)O)nc(OC[C@H](N)c3ccccc3)cc21"
  unit.spec: "%"
  observed.result: 59.6

The molecule listed as "O=S(=O)(CCNCc1ccc(-c2ccc3ncnc(Nc4ccc(OCc5cccc(F)c5)c(Cl)c4)c3c2)o1)c1ccccc1" has a reported inhibition of 5.96

The molecule listed as "O=C(Nc1n[nH]c2cc(-c3ccc(F)cc3)ccc12)C1CC1" has a reported inhibition of 6.51

The molecule listed as "Cc1ccc(O)cc1Nc1ccnc2cc(-c3ccccn3)ccc12" has a reported inhibition of 78.6

The molecule listed as "CNC(=O)c1cc(-c2ccc(F)cc2)cc(-c2ccc(S(=O)(=O)N3CCCC3)cc2)c1N" has a reported inhibition of 1.67

The molecule listed as "CN(C)CCOc1ccc(-c2nc(-c3ccncc3)c(-c3ccc4c(c3)CC/C4=N\O)[nH]2)cc1" has a reported inhibition of 3.5

The molecule listed as "COc1cc2ncn(-c3cc(OCc4ccccc4C(F)(F)F)c(C(=O)N(C)C)s3)c2cc1OC" has a reported inhibition of 6.67

The molecule listed as "NC(=O)c1sc(-n2cnc3ccc(C(F)(F)F)cc32)cc1OCc1ccccc1Br" has a reported inhibition of 6.34

The molecule listed as "CC(C)COC(=O)c1ccc2c(c1)/C(=C/Nc1ccc(S(N)(=O)=O)cc1)C(=O)N2" has a reported inhibition of 40.4

The molecule listed as "CCOc1ccc2c(-c3ccnc(Nc4cccc(C(F)(F)F)c4)n3)cnn2n1" has a reported inhibition of 4.26

The molecule listed as "COc1ccc(-c2cc3c(N)ncnc3o2)cc1" has a reported inhibition of 0.19

The molecule listed as "c1cc(-c2cnn3nc(N4CCOCC4)ccc23)nc(NC2CC2)n1" has a reported inhibition of 12.9

The molecule listed as "CCCN(CCS(C)(=O)=O)Cc1ccc(-c2ccc3ncnc(Nc4ccc(OCc5cccc(F)c5)c(Cl)c4)c3c2)o1" has a reported inhibition of 4.89

The molecule listed as "COC(=O)c1sc(-n2cnc3cc(OC)c(OC)cc32)cc1OCc1ccccc1C(F)(F)F" has a reported inhibition of 15.2

* * *

Quick reference for inhibition among some molecules
Molecular target: Aurora kinase A (Homo sapiens) (UniProt O14965);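 further: each reported value is a mean percent inhibition of Aurora-A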
Sequence (whole entry): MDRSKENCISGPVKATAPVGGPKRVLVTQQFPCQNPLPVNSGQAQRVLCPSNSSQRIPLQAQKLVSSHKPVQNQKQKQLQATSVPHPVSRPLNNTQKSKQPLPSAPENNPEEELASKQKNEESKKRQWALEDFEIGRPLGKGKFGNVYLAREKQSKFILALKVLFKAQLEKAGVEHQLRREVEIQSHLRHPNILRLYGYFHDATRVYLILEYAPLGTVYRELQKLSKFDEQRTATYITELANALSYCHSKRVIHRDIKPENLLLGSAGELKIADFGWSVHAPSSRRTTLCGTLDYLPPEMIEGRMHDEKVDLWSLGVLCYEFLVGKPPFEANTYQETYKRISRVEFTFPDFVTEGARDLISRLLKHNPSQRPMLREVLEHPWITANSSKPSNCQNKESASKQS
Conditions: at 0.1 µM
Write it as a number; the unit % goes unstated.

- chem.smiles: "COc1cc(N2CCN(C(C)C)CC2)ccc1Nc1nc(Nc2ccc(F)cc2C(N)=O)c2cc[nH]c2n1"
  observed.result: 2.91
- chem.smiles: "CCCN(CCS(C)(=O)=O)Cc1ccc(-c2ccc3ncnc(Nc4ccc(OCc5cccc(F)c5)c(Cl)c4)c3c2)o1"
  observed.result: 1.47
- chem.smiles: "O=S(=O)(CCNCc1ccc(-c2ccc3ncnc(Nc4ccc(OCc5cccc(F)c5)c(Cl)c4)c3c2)o1)c1ccccc1"
  observed.result: 6.02
- chem.smiles: "CCOc1ccc2c(-c3ccnc(Nc4cccc(C(F)(F)F)c4)n3)cnn2n1"
  observed.result: 1.41
- chem.smiles: "COc1ccc(-c2cc(-c3c[nH]nc3-c3ccccn3)ccn2)cc1"
  observed.result: 3.7

The molecule listed as "COC(=O)Nc1nc2ccc(S(=O)(=O)c3ccc(NC(=O)Nc4cc(C(F)(F)F)ccc4F)cc3)cc2[nH]1" has a reported inhibition of 3.13

The molecule listed as "COc1cccc(-c2c[nH]c3c(N/N=C/c4ccncc4)ncnc23)c1" has a reported inhibition of 4.07

The molecule listed as "NS(=O)(=O)c1ccc(N/N=C2\C(=O)Nc3ccc4ncccc4c32)cc1" has a reported inhibition of 27.3

The molecule listed as "Nc1ncc(-c2cccc(S(N)(=O)=O)c2)c2scc(-c3ccc(F)c(Cl)c3)c12" has a reported inhibition of 3.16

The molecule listed as "CCCN1CCC(c2ccc(Nc3nc(Nc4cc(F)ccc4C(N)=O)c4cc[nH]c4n3)c(OC)c2)CC1" has a reported inhibition of 2.78

The molecule listed as "[O-][S+]1CCN(Cc2ccc(-c3ccc4ncnc(Nc5ccc(OCc6cccc(F)c6)c(Cl)c5)c4c3)o2)CC1" has a reported inhibition of 4.7

The molecule listed as "COc1ccc(-c2nn3ncccc3c2-c2ccnc(Nc3ccc4c(c3)OCCO4)n2)cc1" has a reported inhibition of 18.5

The molecule listed as "c1ccc(COc2ccc(Nc3ncnc4ccc(-c5ccco5)cc34)cc2)cc1" has a reported inhibition of 2.29

The molecule listed as "CNC(=O)c1cccc(C#Cc2cncnc2Nc2ccc(OCc3cccc(F)c3)c(Cl)c2)c1" has a reported inhibition of 2.9

The molecule listed as "CC(=O)Nc1cccc(C#Cc2cncnc2Nc2ccc(OCc3cccc(F)c3)c(Cl)c2)c1" has a reported inhibition of 2.48

The molecule listed as "COc1ccc(CNC(=O)c2ccc(-c3cc(-c4nnc(C)o4)ccc3C)cc2)cc1" has a reported inhibition of -0.94

The molecule listed as "COc1cc(/C=N/Nc2ncnc3[nH]ncc23)ccc1O" has a reported inhibition of 6.3

The molecule listed as "Fc1ccc(-c2cc(-c3c[nH]nc3-c3ccccn3)ccn2)cc1" has a reported inhibition of 3.15

The molecule listed as "Cc1cccc2c1NC(=O)/C2=N\Nc1ccc(S(N)(=O)=O)cc1" has a reported inhibition of 3.73

The molecule listed as "FC(F)(F)c1cccc(-c2nn3ncccc3c2-c2ccnc(Nc3ccc4c(c3)OCCO4)n2)c1" has a reported inhibition of 2.64

The molecule listed as "NC(=O)c1sc(-n2cnc3ccc(C(F)(F)F)cc32)cc1OCc1ccccc1Br" has a reported inhibition of 2.74

The molecule listed as "Cc1ccc2c(-c3ccnc(Nc4ccccc4)n3)c(-c3ccc(F)cc3)nn2n1" has a reported inhibition of 3.75

The molecule listed as "N#Cc1c(NC(=O)CN2CCOCC2)sc2c1CCCC2" has a reported inhibition of 2.73

* * *

Quick reference for inhibition among some compounds
Biological target: Serine/threonine-protein kinase D2 (Homo sapiens);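 further: mean value of PRKD2 inhibition, from the GSK PKIS screening panel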
Details: at 1 µM
Write it as a number; the unit % goes unstated.

As a guide, the following entries are already answered.
- chem.smiles: "NS(=O)(=O)c1ccc(Nc2ncc(-c3ccccc3)o2)cc1"
  observed.result: 5.55
- chem.smiles: "Nc1ncc(-c2cccc(S(N)(=O)=O)c2)c2scc(-c3ccc(F)c(Cl)c3)c12"
  observed.result: 43.8
- chem.smiles: "CC(=O)NCc1cccc(C#Cc2cncnc2Nc2ccc(OCc3cccc(F)c3)c(Cl)c2)c1"
  observed.result: 2.16
- chem.smiles: "COc1cc(/C=N/Nc2ncnc3[nH]ncc23)ccc1O"
  observed.result: 3.63

The compound listed as "Cc1cccc2c1NC(=O)/C2=N\Nc1ccc(S(N)(=O)=O)cc1" has a reported inhibition of 3.1

* * *

Biological target: CDK3/Cyclin E (Homo sapiens) (UniProt P24864+Q00526);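 further: reported percentages are mean inhibition values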
Sequence (P24864 whole entry, looked up): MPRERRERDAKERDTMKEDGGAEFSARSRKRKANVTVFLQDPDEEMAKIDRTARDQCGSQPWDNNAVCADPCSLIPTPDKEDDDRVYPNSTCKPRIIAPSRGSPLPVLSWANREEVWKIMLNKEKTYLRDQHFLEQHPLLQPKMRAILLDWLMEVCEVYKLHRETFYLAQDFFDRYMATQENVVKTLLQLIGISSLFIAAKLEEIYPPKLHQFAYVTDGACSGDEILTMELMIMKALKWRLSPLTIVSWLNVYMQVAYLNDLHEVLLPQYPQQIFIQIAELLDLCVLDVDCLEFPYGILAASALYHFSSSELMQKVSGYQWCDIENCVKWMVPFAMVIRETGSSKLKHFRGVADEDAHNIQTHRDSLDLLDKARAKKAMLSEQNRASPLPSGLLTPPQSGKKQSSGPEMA
Sequence (Q00526 whole entry, looked up): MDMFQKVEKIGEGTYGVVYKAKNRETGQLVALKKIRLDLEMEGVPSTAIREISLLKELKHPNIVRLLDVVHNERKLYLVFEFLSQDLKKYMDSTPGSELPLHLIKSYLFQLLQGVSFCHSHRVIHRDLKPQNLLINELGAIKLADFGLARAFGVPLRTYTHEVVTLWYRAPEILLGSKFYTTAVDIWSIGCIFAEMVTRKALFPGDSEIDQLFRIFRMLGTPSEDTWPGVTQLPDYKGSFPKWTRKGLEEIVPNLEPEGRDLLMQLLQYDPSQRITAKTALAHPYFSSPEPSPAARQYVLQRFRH
Conditions: at 0.1 µM
measure.name: inhibition (%)
Write it as a number; the unit % goes unstated.

As a guide, the following entries are already answered.
- chem.smiles: "Fc1ccc(-c2nn3ncccc3c2-c2ccnc(Nc3ccc4c(c3)OCCO4)n2)cc1"
  unit.spec: "%"
  inhibition: 3.59
- chem.smiles: "CC(C)COC(=O)c1ccc2c(c1)/C(=C/Nc1ccc(S(N)(=O)=O)cc1)C(=O)N2"
  unit.spec: "%"
  inhibition: 43.8
- chem.smiles: "CN1CCC(n2cnc(-c3ccc(F)cc3)c2-c2ccnc(Nc3ccccc3)n2)CC1"
  unit.spec: "%"
  inhibition: 2.38

Next:
The molecule listed as "CCN1CCC(CC(=O)Nc2n[nH]c3nnc(-c4cccc(F)c4F)cc23)CC1" has a reported inhibition of 0.16
